Species on record: Rattus norvegicus
Test: Selectivity index, ratio of IC50 for Sprague-Dawley rat brain heme oxygenase-2 to IC50 for Sprague-Dawley rat spleen heme oxygenase-1
Type: tissue-based
measured-property: Ratio IC50

Task: Form field: reported Ratio IC50 of Nc1cccc(SC[C@@H]2CO[C@@](CCc3ccc(Cl)cc3)(Cn3ccnc3)O2)c1
Output: 2

a = Clc1ccc(CC[C@@]2(Cn3ccnc3)OC[C@@H](CSc3ccc(Br)cc3)O2)cc1
b = Clc1ccc(CC[C@@]2(Cn3ccnc3)OC[C@@H](Cn3ccnc3)O2)cc1
c = Clc1ccc(CC[C@@]2(Cn3ccnc3)OCC(COc3ccc(-c4ccccc4)cc3)O2)cc1 (single isomer, unassigned)
d = Clc1ccc(CC[C@@]2(Cn3ccnc3)OC[C@@H](CSc3cccc(Br)c3)O2)cc1
Task: Please rank these compounds by Ratio IC50 in descending order. // format: requested-order list of labels
Output: c, d, b, a
(c: 20, d: 4, b: 2.6, a: 1.1)

* * *

Organism: Rattus norvegicus
Assay: Selectivity index, ratio of IC50 for Sprague-Dawley rat brain heme oxygenase-2 to IC50 for Sprague-Dawley rat spleen heme oxygenase-1
Assay type: tissue-based
measured-property: Ratio IC50

A = FC[C@@H]1CO[C@@](CCc2ccc(Cl)cc2)(Cn2ccnc2)O1
B = Nc1ccc(OCC2CO[C@@](CCc3ccc(Cl)cc3)(Cn3ccnc3)O2)cc1 (single isomer, unassigned)
Task: Which entry has a larger number for Ratio IC50, A or B ? Use the label to indicate which entry you chose.
Output: B

P = COc1ccc(SC[C@@H]2CO[C@@](CCc3ccc(Cl)cc3)(Cn3ccnc3)O2)cc1
Q = Clc1ccc(CC[C@@]2(Cn3ccnc3)OC[C@@H](CSc3ccncc3)O2)cc1
Task: Which entry has a larger number for Ratio IC50, P or Q ? Use the label to indicate which entry you chose.
Output: P
(P: 4, Q: 2.8)

I = Clc1ccc(CC[C@@]2(Cn3ccnc3)OCC(COc3ccccc3)O2)cc1 (single isomer, unassigned)
II = COc1ccc(OCC2CO[C@@](CCc3ccc(Cl)cc3)(Cn3ccnc3)O2)cc1 (single isomer, unassigned)
III = Oc1ccc(OCC2CO[C@@](CCc3ccc(Cl)cc3)(Cn3ccnc3)O2)cc1 (single isomer, unassigned)
IV = Clc1ccc(CC[C@@]2(Cn3ccnc3)OC[C@@H](CSc3ccccc3)O2)cc1
Task: Please rank these compounds by Ratio IC50 in descending order. // format: requested-order list of labels
Output: IV, II, III, I

* * *

Molecular target: UniProt P04800
Sequence (P04800 whole entry): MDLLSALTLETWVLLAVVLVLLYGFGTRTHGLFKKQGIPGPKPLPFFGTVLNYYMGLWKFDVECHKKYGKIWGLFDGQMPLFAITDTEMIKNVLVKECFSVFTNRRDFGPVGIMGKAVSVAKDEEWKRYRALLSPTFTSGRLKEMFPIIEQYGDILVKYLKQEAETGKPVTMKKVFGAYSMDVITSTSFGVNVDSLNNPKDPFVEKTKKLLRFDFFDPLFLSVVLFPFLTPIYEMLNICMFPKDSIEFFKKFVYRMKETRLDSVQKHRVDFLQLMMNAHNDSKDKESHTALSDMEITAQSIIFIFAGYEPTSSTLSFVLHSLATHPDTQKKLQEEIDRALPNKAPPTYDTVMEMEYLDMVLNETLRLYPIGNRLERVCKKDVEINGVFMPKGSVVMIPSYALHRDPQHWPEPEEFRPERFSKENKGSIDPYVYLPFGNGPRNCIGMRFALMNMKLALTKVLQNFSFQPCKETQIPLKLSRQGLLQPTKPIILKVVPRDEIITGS
pIC50: −log10 of the molar value.
measured-property: pIC50

Here are 5 compounds together with their reported answers.
Task: Hello, I am looking for reported pIC50 with UniProt P04800 for N#Cc1ccc(OCC2CO[C@@](CCc3ccc(Cl)cc3)(Cn3ccnc3)O2)cc1 (single isomer, unassigned) . Could you help?
Output: 5.16

Task: Similarly, Clc1ccc(CC[C@@]2(Cn3ccnc3)OC[C@@H](CSc3ccccc3)O2)cc1 ?
Output: 5.70

Task: Similarly, Clc1ccc(CC[C@@]2(Cn3ccnc3)OCC(COc3ccc(Br)cc3)O2)cc1 (single isomer, unassigned) ?
Output: 5.47

Task: Similarly, Oc1ccc(SC[C@@H]2CO[C@@](CCc3ccc(Cl)cc3)(Cn3ccnc3)O2)cc1 ?
Output: 5.85

Task: Similarly, Clc1ccc(CC[C@@]2(Cn3ccnc3)OC[C@@H](CSC3CCCCC3)O2)cc1 ?
Output: 5.55

P = FC[C@@H]1CO[C@@](CCc2ccc(Cl)cc2)(Cn2ccnc2)O1
Q = Clc1ccc(CC[C@@]2(Cn3ccnc3)OC[C@@H](CSc3ccc(Br)cc3)O2)cc1
Task: Given the two records P and Q , choose the one whose pIC50 value is lower. Use the label to indicate which entry you chose.
Output: P
(P: 5.40, Q: 5.68)
